assay-system: HLA-A02.01 (Homo sapiens, UniProt P04439, D140Y/D185E/D98H/E176V/E277Q/G131W/G231S/I119V/I121R/I166T/I218V/L300P/L318F/N151K/N90K/P208A/P217A/Q86G/Q94H/R138H/R169H/T345S)
assay-procedure: Class I MHC peptide binding affinity (displacement of radiolabeled reference peptide)
run-parameters: allele A02.01; read-out: Observed Affinity (IC50; (nM))
Description: In brief, MHCI complexes were prepared and bound to radiolabeled reference peptides. Peptides were incubated at varying concentrations with these complexes for 2 days, and the amount of remaining radiolabeled peptide bound to […] was measured using size exclusion gel-filtration.
Where a SMILES comes first, the peptide text is derived from it.
readout-kind: IC50

Recorded results for 2 molecules are shown here.
Query IC50 for CC(C)C[C@H](NC(=O)[C@H](CC(C)C)NC(=O)[C@H](CC(C)C)NC(=O)[C@H](CC(=O)O)NC(=O)[C@H](CS)NC(=O)[C@H](CC(C)C)NC(=O)[C@@H]1CCCN1C(=O)[C@@H](NC(=O)[C@@H](NC(=O)[C@@H](N)CC(N)=O)C(C)C)C(C)C)C(=O)O (H-NVVPLCDLLL-OH; N-terminus and C-terminus assumed) 1370 nM

Give the reported value of IC50 for this record: CC[C@H](C)[C@H](NC(=O)[C@H](Cc1ccc(O)cc1)NC(=O)[C@@H]1CCCN1C(=O)[C@H](CO)NC(=O)[C@H](CC(N)=O)NC(=O)[C@H](CO)NC(=O)[C@H](CCC(=O)O)NC(=O)[C@H](Cc1c[nH]cn1)NC(=O)[C@H](CC(C)C)NC(=O)[C@@H](N)C(C)C)C(=O)O (H-VLHESNSPYI-OH; N-terminus and C-terminus assumed) 131 nM

Further cases:
Indicate the recorded IC50 value for this molecule: CC[C@H](C)[C@H](N)C(=O)N[C@H](C(=O)N[C@@H](CO)C(=O)N[C@@H](CCCNC(=N)N)C(=O)N[C@H](C(=O)N[C@@H](CC(C)C)C(=O)N[C@@H](CC(C)C)C(=O)N[C@@H](CC(C)C)C(=O)N[C@H](C(=O)O)C(C)C)[C@@H](C)O)C(C)C (H-IVSRTLLLV-OH; N-terminus and C-terminus assumed) 12.7 nM

* * *

assay-system: HLA-A02.01 (Homo sapiens, UniProt P04439, D140Y/D185E/D98H/E176V/E277Q/G131W/G231S/I119V/I121R/I166T/I218V/N151K/N90K/P208A/P217A/Q86G/Q94H/R138H/R169H)
Construct: made in house; host or cells: E. coli
assay-procedure: Class I MHC peptide binding stability (pMHC-I dissociation, 125I-labeled light chain)
run-parameters: allele A02.01
Where a SMILES comes first, the peptide text is derived from it.
Items are presented alongside their recorded Stability (T1/2 (h)).
Provide the reading as a plain figure in h.

Use the examples below as a reference point.
State its Stability (T1/2 (h)): CSCC[C@H](NC(=O)[C@H](CCC(=O)O)NC(=O)[C@H](CC(C)C)NC(=O)[C@H](CC(C)C)NC(=O)[C@H](CC(C)C)NC(=O)[C@H](CC(=O)O)NC(=O)[C@H](CS)NC(=O)[C@H](CC(C)C)NC(=O)[C@@H]1CCCN1)C(=O)N[C@@H](CC(C)C)C(=O)O (H-PLCDLLLEML-OH; N-terminus and C-terminus assumed) 0.9

Assign Stability (T1/2 (h)) to the following record: CSCC[C@H](NC(=O)[C@@H](N)CO)C(=O)N[C@@H](CC(C)C)C(=O)N[C@H](C(=O)NCC(=O)N1CCC[C@H]1C(=O)N1CCC[C@H]1C(=O)N[C@@H](C)C(=O)N[C@@H](CCCNC(=N)N)C(=O)N[C@H](C(=O)O)C(C)C)[C@@H](C)O 21.7

For the compound CSCC[C@H](NC(=O)[C@H](CCC(=O)O)NC(=O)[C@H](CC(C)C)NC(=O)[C@H](CC(C)C)NC(=O)[C@H](CC(C)C)NC(=O)CNC(=O)[C@H](Cc1ccc(O)cc1)NC(=O)[C@H](CC(C)C)NC(=O)[C@@H]1CCCN1)C(=O)O (H-PLYGLLLEM-OH; N-terminus and C-terminus assumed) , give its reported Stability (T1/2 (h)). 0.7

--- query ---
Please report Stability (T1/2 (h)) for the following compound: CC[C@H](C)[C@H](NC(=O)[C@H](CO)NC(=O)[C@H](Cc1c[nH]c2ccccc12)NC(=O)[C@H](Cc1c[nH]cn1)NC(=O)[C@H](C)NC(=O)[C@@H]1CCCN1C(=O)[C@H](CCSC)NC(=O)[C@H](CC(C)C)NC(=O)[C@@H](N)CO)C(=O)O 5

* * *

# reported Stability (T1/2 (h)); entries follow
assay-system: HLA-A02.01 (Homo sapiens, UniProt P04439, D140Y/D185E/D98H/E176V/E277Q/G131W/G231S/I119V/I121R/I166T/I218V/N151K/N90K/P208A/P217A/Q86G/Q94H/R138H/R169H)
Construct: made in house; host or cells: E. coli
assay-procedure: Class I MHC peptide binding stability (pMHC-I dissociation, 125I-labeled light chain)
run-parameters: allele A02.01
Where a SMILES comes first, the peptide text is derived from it.
Give the value in h but do not write h after it.

Reference set (2 entries):
Consider the compound CC[C@H](C)[C@H](NC(=O)[C@H](Cc1ccc(O)cc1)NC(=O)[C@H](CCCCN)NC(=O)CNC(=O)[C@H](CCCNC(=N)N)NC(=O)[C@H](CCCCN)NC(=O)[C@H](Cc1c[nH]cn1)NC(=O)[C@H](CC(C)C)NC(=O)[C@@H](N)Cc1c[nH]c2ccccc12)C(=O)O (H-WLHKRGKYI-OH; N-terminus and C-terminus assumed) . State its measured Stability (T1/2 (h)). 1.2

Supply Stability (T1/2 (h)) value. Item: CC[C@H](C)[C@H](NC(=O)[C@H](CC(N)=O)NC(=O)[C@H](CCSC)NC(=O)[C@H](Cc1c[nH]cn1)NC(=O)[C@H](CC(N)=O)NC(=O)CNC(=O)[C@H](CC(C)C)NC(=O)[C@@H](N)Cc1ccc(O)cc1)C(=O)N[C@@H](C)C(=O)O (H-YLGNHMNIA-OH; N-terminus and C-terminus assumed) 0.6

***
Tell us which Stability (T1/2 (h)) value is on record for CC[C@H](C)[C@H](NC(=O)[C@H](Cc1ccc(O)cc1)NC(=O)[C@H](CC(C)C)NC(=O)[C@@H](N)CO)C(=O)N[C@H](C(=O)NCC(=O)N[C@@H](Cc1ccccc1)C(=O)N[C@@H](Cc1ccc(O)cc1)C(=O)NCC(=O)N[C@@H](C)C(=O)O)C(C)C (H-SLYIVGFYGA-OH; N-terminus and C-terminus assumed) 0.4

* * *

Items are presented alongside their recorded IC50.
assay-system: HLA-A03.01 (Homo sapiens, UniProt P04439)
assay-procedure: Class I MHC peptide binding affinity (displacement of radiolabeled reference peptide)
run-parameters: allele A03.01; read-out: Observed Affinity (IC50; (nM))
Where a SMILES comes first, the peptide text is derived from it.
# output: bare number, implied unit nM

Guide cases for IC50, answers given:
Quote IC50 reported for CC[C@H](C)[C@H](NC(=O)[C@H](C)N)C(=O)N[C@@H](CO)C(=O)N[C@H](C(=O)N[C@@H](CCCNC(=N)N)C(=O)N[C@@H](CC(=O)O)C(=O)N1CCC[C@H]1C(=O)N[C@@H](CC(C)C)C(=O)N[C@@H](CO)C(=O)N[C@@H](CCCCN)C(=O)O)[C@@H](C)O (H-AISTRDPLSK-OH; N-terminus and C-terminus assumed) please. 57.5

Hello, please tell me recorded IC50 for this one: CC[C@H](C)[C@H](NC(=O)[C@H](CCCCN)NC(=O)[C@@H](N)CCCNC(=N)N)C(=O)N[C@@H](CO)C(=O)N[C@@H](CC(N)=O)C(=O)N[C@@H](Cc1c[nH]c2ccccc12)C(=O)N[C@@H](CO)C(=O)N[C@@H](CC(C)C)C(=O)N[C@@H](CCCCN)C(=O)N[C@@H](CCCCN)C(=O)O (H-RKISNWSLKK-OH; N-terminus and C-terminus assumed) 131

Further cases:
Read off the recorded IC50 for CC[C@H](C)[C@H](NC(=O)[C@H](CS)NC(=O)[C@H](Cc1ccccc1)NC(=O)[C@H](CC(N)=O)NC(=O)[C@H](C)NC(=O)[C@H](CC(C)C)NC(=O)[C@@H](N)CS)C(=O)N[C@@H](Cc1ccccc1)C(=O)N[C@@H](CC(N)=O)C(=O)N[C@@H](CCCNC(=N)N)C(=O)O 222

* * *

As shown below, each of these compounds has a reported IC50 value.
assay-system: UniProtKB P04439
assay-procedure: Class I MHC peptide binding affinity (displacement of radiolabeled reference peptide)
run-parameters: allele A03.01; read-out: Observed Affinity (IC50; (nM))
Where a SMILES comes first, the peptide text is derived from it.
Could you write the number and then its unit?

As a guide, the following entries are already answered.
Consider the compound CC(C)C[C@H](NC(=O)[C@H](CCC(N)=O)NC(=O)[C@H](CC(C)C)NC(=O)[C@@H](N)Cc1c[nH]cn1)C(=O)N[C@@H](CCCCN)C(=O)N[C@@H](CO)C(=O)N[C@@H](CS)C(=O)N[C@@H](CCCNC(=N)N)C(=O)N[C@@H](CCCNC(=N)N)C(=O)N[C@@H](CCCCN)C(=O)O (H-HLQLKSCRRK-OH; N-terminus and C-terminus assumed) and give its recorded IC50. 96.9 nM

Provide one value: measured IC50 of CC(C)C[C@H](NC(=O)[C@@H](NC(=O)[C@H](CO)NC(=O)[C@H](CO)NC(=O)[C@H](CC(C)C)NC(=O)[C@@H](N)CCCNC(=N)N)C(C)C)C(=O)N[C@@H](CCC(N)=O)C(=O)N[C@@H](CCCNC(=N)N)C(=O)N[C@@H](Cc1ccccc1)C(=O)N[C@@H](CCCNC(=N)N)C(=O)O 12.5 nM

Consider now this further compound.
Look up and report measured IC50 for this entry: CC(C)C[C@H](NC(=O)[C@@H](N)[C@@H](C)O)C(=O)N[C@@H](CC(N)=O)C(=O)N[C@@H](CO)C(=O)N1CCC[C@H]1C(=O)N1CCC[C@H]1C(=O)N[C@@H](CC(C)C)C(=O)N[C@@H](CCCCN)C(=O)N[C@@H](CCCCN)C(=O)O (H-TLNSPPLKK-OH; N-terminus and C-terminus assumed) 5.4 nM
